// data source = patent US11661431B2

Item-by-item account of pEC50
# study target: TLR8 (Homo sapiens (Human))
# Sequence (Q9NR97 27-1041): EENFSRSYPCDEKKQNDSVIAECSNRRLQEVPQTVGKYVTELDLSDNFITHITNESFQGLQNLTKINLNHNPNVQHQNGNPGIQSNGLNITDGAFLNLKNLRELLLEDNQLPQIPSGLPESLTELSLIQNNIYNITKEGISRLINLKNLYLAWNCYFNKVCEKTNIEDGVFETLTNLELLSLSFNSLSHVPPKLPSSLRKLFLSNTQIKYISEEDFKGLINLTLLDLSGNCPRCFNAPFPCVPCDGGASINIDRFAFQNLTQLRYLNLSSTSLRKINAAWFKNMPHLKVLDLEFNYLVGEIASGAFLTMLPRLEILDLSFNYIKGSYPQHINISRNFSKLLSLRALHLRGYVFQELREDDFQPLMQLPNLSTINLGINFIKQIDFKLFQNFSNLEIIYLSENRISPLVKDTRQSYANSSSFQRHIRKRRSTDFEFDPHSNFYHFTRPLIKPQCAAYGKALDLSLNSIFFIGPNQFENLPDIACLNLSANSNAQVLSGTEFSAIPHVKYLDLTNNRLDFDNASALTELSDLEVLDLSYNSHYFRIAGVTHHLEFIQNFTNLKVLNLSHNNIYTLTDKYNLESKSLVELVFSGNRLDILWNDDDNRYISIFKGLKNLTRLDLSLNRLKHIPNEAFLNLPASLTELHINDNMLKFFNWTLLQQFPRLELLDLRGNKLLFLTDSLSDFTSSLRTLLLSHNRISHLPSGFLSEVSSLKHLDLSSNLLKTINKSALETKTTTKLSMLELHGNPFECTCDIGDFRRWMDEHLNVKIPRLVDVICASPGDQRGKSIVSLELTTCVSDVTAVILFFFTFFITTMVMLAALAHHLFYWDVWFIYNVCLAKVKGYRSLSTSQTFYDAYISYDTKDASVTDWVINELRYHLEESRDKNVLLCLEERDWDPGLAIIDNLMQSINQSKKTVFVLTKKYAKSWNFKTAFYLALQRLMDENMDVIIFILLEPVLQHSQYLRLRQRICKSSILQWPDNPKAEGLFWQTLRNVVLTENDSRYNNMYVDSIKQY
# assay: TLR8 human peripheral blood mononuclear cell (PBMC) cell-based assay (Compound A as agonist; TNFα and IL12p40 readout)
# test conditions: human PBMCs, TLR8 agonist Compound A at 800 nM, 6 hours, antagonist potency; read-out: TLR-8 EC50
// pEC50 here means minus log10 of the molar concentration (mol/L)

q: Form field - read-out: pEC50; system: TLR8 (Homo sapiens (Human)); submitted item: "Cc1c(C2CN(CC(N)=O)C2)sc2[nH]c(-c3cc(C)c4ncnn4c3)c(C(C)C)c12"
a: 8.02

q: Form field - read-out: pEC50; system: TLR8 (Homo sapiens (Human)); submitted item: "CCNC(=O)CN1C[C@@H]2C[C@H]1C[C@H]2c1sc2[nH]c(-c3cn4ncnc4c(C)c3C)c(C(C)C)c2c1C"
a: 9.35

q: Form field - read-out: pEC50; system: TLR8 (Homo sapiens (Human)); submitted item: "Cc1c(C2CCN(C(=O)[C@@H]3CCCN3)CC2)sc2[nH]c(-c3cc(C)c4ncnn4c3)c(C(C)C)c12"
a: 7.86

q: Form field - read-out: pEC50; system: TLR8 (Homo sapiens (Human)); submitted item: "CNC(=O)CN1CCC(c2sc3[nH]c(-c4cc(C)c5ncnn5c4)c(C(C)C)c3c2C)CC1"
a: 7.71

q: Form field - read-out: pEC50; system: TLR8 (Homo sapiens (Human)); submitted item: "Cc1c(C2CCN(C(=O)[C@@H]3COCCN3)CC2)sc2[nH]c(-c3cc(C)c4ncnn4c3)c(C(C)C)c12"
a: 7.68

q: Form field - read-out: pEC50; system: TLR8 (Homo sapiens (Human)); submitted item: "Cc1nc2c(C)cc(-c3[nH]c4sc([C@@H]5C[C@@H]6C[C@H]5CN6CC(N)=O)c(C)c4c3C(C)C)cn2n1"
a: 9.89
